Test system: SW-620 colon
method: NCI tumour cell line growth inhibition, 48 h
assay-metric: TGI

Some molecules with known TGI results, for comparison:
In [3]: df
Out[3]:
                                   molecule  study_target  assay_value
0  O=C(O)CC(C(=O)O)c1ccccc1[N+](=O)[O-] (configuration not stated)  SW-620 colon     > 100 µM
1          C/C(=N\NC(=S)N1CCCCCC1)c1nccnc1C  SW-620 colon     > 100 µM

For the molecule C=C1C(=O)O[C@H]2[C@H]1CC/C(COC(=O)C(=O)c1c[nH]c3ccccc13)=C\CC[C@@]1(C)O[C@@H]21 , give its reported TGI.
16.6 µM

Give TGI for the following molecule: Cc1ccc2c(c1)SSSSS2
37.1 µM

Please supply the value of reported TGI for the item NC(=S)/N=C/c1c(O)c2ccccc2oc1=O
> 100 µM

Recall and state the measured TGI for CN(C)/[N+]([O-])=N/Oc1cc(Nc2cccc(C(=O)O)c2)c([N+](=O)[O-])cc1[N+](=O)[O-] .
> 100 µM

Quickly give me recorded TGI for O=C(/C=C/c1ccco1)c1ccc(Nc2nc(Nc3ccc(F)cc3)nc(Nc3ccc(Cl)cc3)n2)cc1
> 63.3 µM
